molecular target: β-secretase(BACE) (Homo sapiens, UniProt P56817); construct: purchased Panvera; assay: BACE FS1% Inhibition Assay; format: biochemical; conditions: 3 μM test compound; FS1 substrate
Sequence (P56817 46-501): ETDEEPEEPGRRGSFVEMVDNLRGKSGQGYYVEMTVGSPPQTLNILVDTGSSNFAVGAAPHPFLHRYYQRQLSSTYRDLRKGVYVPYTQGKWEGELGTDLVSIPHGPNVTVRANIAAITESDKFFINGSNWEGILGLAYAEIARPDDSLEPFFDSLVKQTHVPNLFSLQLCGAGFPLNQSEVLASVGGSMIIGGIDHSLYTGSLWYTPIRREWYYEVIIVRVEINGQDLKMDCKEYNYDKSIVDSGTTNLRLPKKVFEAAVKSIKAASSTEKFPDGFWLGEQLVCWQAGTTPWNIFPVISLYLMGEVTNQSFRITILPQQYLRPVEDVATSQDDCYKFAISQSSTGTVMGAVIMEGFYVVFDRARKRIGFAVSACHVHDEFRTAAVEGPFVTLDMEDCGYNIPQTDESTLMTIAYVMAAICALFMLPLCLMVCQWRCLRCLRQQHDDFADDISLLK
property measured: % Inhibition (FS) 3 μM (%)

Take a look at these entries with their results.
{"compound": "CSc1ccccc1-c1ccc2c(c1)CN(Cc1cccc(C(=O)N(C)C3CCCCC3)c1)C(N)=N2", "unit of measurement": "%", "% Inhibition (FS) 3 μM": 95}
{"compound": "CCCN(CC1CC1)C(=O)c1cccc(CN2Cc3cc(Oc4ccccc4)ccc3N=C2N)c1", "unit of measurement": "%", "% Inhibition (FS) 3 μM": 32}
{"compound": "NC1=Nc2ccc(Oc3ccccc3)cc2CN1C(CC(=O)NC1C2CC3CC(C2)CC1C3)C1CCCCC1 (stereo not shown)", "unit of measurement": "%", "% Inhibition (FS) 3 μM": 85}

P: Cc1ccc(Sc2ccc3c(c2)CN(Cc2cccc(C(=O)N(C)C4CCCCC4)c2)C(N)=N3)cc1C
Q: COc1cccc(C(=O)NCCN2Cc3cc(Oc4ccccc4)ccc3N=C2N)c1
R: COc1ccccc1-c1cc2c(cc1F)CN(CCC(=O)NC1C3CC4CC(C3)CC1C4)C(N)=N2 (stereo not shown)
Data request: Please put the entries in order of rising % Inhibition (FS) 3 μM. Put the labels in the requested order and write them down.
Data returned: R, Q, P
